Values were extracted from patent US20210290648A1.

test system: PAO750; format: cell-based, Pseudomonas aeruginosa; settings: + compound 2 ≤8.7 μM; PAO750
quantity name: MIC of antibiotic + Compound 2 in PAO750 (µg/mL)
Use µg/mL as the unit, but write only the number.

Take a look at these entries with their results.
test smiles: CCN1CCN(C(=O)N[C@@H](C(=O)N[C@@H]2C(=O)N3[C@@H]2SC(C)(C)[C@@H]3C(=O)O)c2ccccc2)C(=O)C1=O
units text: µg/mL
MIC of antibiotic + Compound 2 in PAO750: 0.5
--
test smiles: C[C@@H](O)[C@H]1C(=O)N2C(C(=O)O)=C(S[C@@H]3CN[C@H](C(=O)N(C)C)C3)[C@H](C)[C@H]12
units text: µg/mL
MIC of antibiotic + Compound 2 in PAO750: 0.25
--
test smiles: C[C@H]1[C@H](NC(=O)/C(=N\OC(C)(C)C(=O)O)c2csc(N)n2)C(=O)N1S(=O)(=O)O
units text: µg/mL
MIC of antibiotic + Compound 2 in PAO750: 0.031
--
test smiles: CO/N=C(\C(=O)N[C@@H]1C(=O)N2C(C(=O)O)=C(COC(C)=O)CS[C@H]12)c1csc(N)n1
units text: µg/mL
MIC of antibiotic + Compound 2 in PAO750: 2

Query compound follows.
Asked: Find the recorded MIC of antibiotic + Compound 2 in PAO750 belonging to `C[C@@H](O)[C@H]1C(=O)N2C(C(=O)O)=C(S[C@@H]3CN[C@H](CNS(N)(=O)=O)C3)[C@H](C)[C@H]12` and report it.
Given back: 0.25

---

test system: PA 91433; assay: Checkerboard combination study / MIC; format: cell-based, Pseudomonas aeruginosa; conditions: antibiotic + compound 2; PA 91433
This section presents compounds with their documented FICI values.

compound: CO/N=C(\C(=O)N[C@@H]1C(=O)N2C(C(=O)O)=C(COC(C)=O)CS[C@H]12)c1csc(N)n1 [Cefotaxime]
FICI: <0.07
--
compound: C[C@@H](O)[C@H]1C(=O)N2C(C(=O)O)=C(S[C@@H]3CN[C@H](C(=O)N(C)C)C3)[C@H](C)[C@H]12 [Meropenem]
FICI: <0.03
--
compound: CC(C)(O/N=C(\C(=O)N[C@@H]1C(=O)N2C(C(=O)[O-])=C(C[n+]3ccccc3)CS[C@H]12)c1csc(N)n1)C(=O)O [Ceftazidime]
FICI: <0.50

Asked: Param readout= FICI; system= PA 91433; entry= C[C@H]1[C@H](NC(=O)/C(=N\OC(C)(C)C(=O)O)c2csc(N)n2)C(=O)N1S(=O)(=O)O [Aztreonam] ; returns value.
Given back: <1.06

Asked: Same for C[C@@H](O)[C@H]1C(=O)N2C(C(=O)O)=C(S[C@@H]3CN[C@H](CNS(N)(=O)=O)C3)[C@H](C)[C@H]12 [Doripenem]
Given back: <0.09

---

Below, each of the compounds is paired with its reported MIC of Antibiotics in the presence of ≤10 μM of 1 value.
test system: WT P. aeruginosa PAO1; experiment: Checkerboard combination study / MIC; format: cell-based, Pseudomonas aeruginosa; conditions: antibiotic + compound 1 ≤10 μM; WT PAO1
A bare number is not enough; add the unit after it.

test smiles: COc1cc(Cc2cnc(N)nc2N)cc(OC)c1OC
reading: 32 µg/mL
//
test smiles: C=C[C@]1(C)C[C@@H](OC(=O)CO)[C@]2(C)[C@H](C)CC[C@]3(CCC(=O)[C@H]32)[C@@H](C)[C@@H]1O
reading: 512 µg/mL
//
test smiles: CC(=O)NC[C@H]1CN(c2ccc(N3CCOCC3)c(F)c2)C(=O)O1
reading: 1024 µg/mL
//
test smiles: CO[C@H]1/C=C/O[C@@]2(C)Oc3c(C)c(O)c4c(O)c(c(/C=N/N5CCN(C)CC5)c(O)c4c3C2=O)NC(=O)/C(C)=C\C=C\[C@H](C)[C@H](O)[C@@H](C)[C@@H](O)[C@@H](C)[C@H](OC(C)=O)[C@@H]1C
reading: 2 µg/mL
//
test smiles: CN[C@H](CC(C)C)C(=O)N[C@H]1C(=O)N[C@@H](CC(N)=O)C(=O)N[C@H]2C(=O)N[C@H]3C(=O)N[C@H](C(=O)N[C@H](C(=O)O)c4cc(O)cc(O)c4-c4cc3ccc4O)[C@H](O)c3ccc(c(Cl)c3)Oc3cc2cc(c3O[C@@H]2O[C@H](CO)[C@@H](O)[C@H](O)[C@H]2O[C@H]2C[C@](C)(N)[C@H](O)[C@H](C)O2)Oc2ccc(cc2Cl)[C@H]1O
reading: 128 µg/mL

Asked: For `O=C1CN(/N=C/c2ccc([N+](=O)[O-])o2)C(=O)N1` , what is its reported MIC of Antibiotics in the presence of ≤10 μM of 1?
Given back: 1024 µg/mL

Asked: Subsequent entry: `C[C@H]1c2cccc(O)c2C(=O)C2=C(O)[C@]3(O)C(=O)C(C(N)=O)=C(O)[C@@H](N(C)C)[C@@H]3[C@@H](O)[C@@H]21`
Given back: 4 µg/mL

Asked: What do you have for `CN(C)c1cc(NC(=O)CNC(C)(C)C)c(O)c2c1C[C@H]1C[C@H]3[C@H](N(C)C)C(O)=C(C(N)=O)C(=O)[C@@]3(O)C(O)=C1C2=O` ?
Given back: 2 µg/mL

Asked: How about this compound: `CCC[C@@H]1C[C@@H](C(=O)N[C@@H]([C@H]2O[C@H](SC)[C@H](O)[C@@H](O)[C@H]2O)[C@H](C)Cl)N(C)C1`
Given back: 512 µg/mL

Asked: Same question for `CC(C)(O/N=C(\C(=O)N[C@@H]1C(=O)N2C(C(=O)[O-])=C(C[n+]3ccccc3)CS[C@H]12)c1csc(N)n1)C(=O)O` please.
Given back: 0.5 µg/mL

Asked: Similarly, `CO/N=C(\C(=O)N[C@@H]1C(=O)N2C(C(=O)O)=C(COC(C)=O)CS[C@H]12)c1csc(N)n1` ?
Given back: 2 µg/mL

Asked: Entry `C[C@@H]1O[C@@H]1P(=O)(O)O` please
Given back: 8 µg/mL

---

test system: PA 262; assay: Checkerboard combination study / MIC; type: cell-based, Pseudomonas aeruginosa; settings: antibiotic + compound 2
Reported FICI values follow for various molecules

The following molecules have reported results that may help.
test smiles: CC(C)(O/N=C(\C(=O)N[C@@H]1C(=O)N2C(C(=O)[O-])=C(C[n+]3ccccc3)CS[C@H]12)c1csc(N)n1)C(=O)O
FICI: <0.31
--
test smiles: C[C@@H](O)[C@H]1C(=O)N2C(C(=O)O)=C(S[C@@H]3CN[C@H](C(=O)N(C)C)C3)[C@H](C)[C@H]12
FICI: <0.13
--
test smiles: C[C@@H](O)[C@H]1C(=O)N2C(C(=O)O)=C(S[C@@H]3CN[C@H](CNS(N)(=O)=O)C3)[C@H](C)[C@H]12
FICI: <0.31
--
test smiles: CO/N=C(\C(=O)N[C@@H]1C(=O)N2C(C(=O)O)=C(COC(C)=O)CS[C@H]12)c1csc(N)n1
FICI: <0.31

Note: attention shifts to another entry.
Asked: Under PA 262: FICI value of `CCN1CCN(C(=O)N[C@@H](C(=O)N[C@@H]2C(=O)N3[C@@H]2SC(C)(C)[C@@H]3C(=O)O)c2ccccc2)C(=O)C1=O` ?
Given back: <0.52

---

system: PA 100036; assay: Checkerboard combination study / MIC; format: cell-based, Pseudomonas aeruginosa; conditions: with compound 2
The entries below are paired with their reported FICAntibiotic.
Respond using a number only.

The following compounds have reported results that may help.
test smiles: CO/N=C(\C(=O)N[C@@H]1C(=O)N2C(C(=O)O)=C(COC(C)=O)CS[C@H]12)c1csc(N)n1
target or system: PA 100036
FICAntibiotic: 0.250
//
test smiles: CC(C)(O/N=C(\C(=O)N[C@@H]1C(=O)N2C(C(=O)[O-])=C(C[n+]3ccccc3)CS[C@H]12)c1csc(N)n1)C(=O)O
target or system: PA 100036
FICAntibiotic: 0.250
//
test smiles: C[C@@H](O)[C@H]1C(=O)N2C(C(=O)O)=C(S[C@@H]3CN[C@H](C(=O)N(C)C)C3)[C@H](C)[C@H]12
target or system: PA 100036
FICAntibiotic: 0.500
//
test smiles: CCN1CCN(C(=O)N[C@@H](C(=O)N[C@@H]2C(=O)N3[C@@H]2SC(C)(C)[C@@H]3C(=O)O)c2ccccc2)C(=O)C1=O
target or system: PA 100036
FICAntibiotic: 1.000

Asked: Request the reported FICAntibiotic associated with `C[C@@H](O)[C@H]1C(=O)N2C(C(=O)O)=C(S[C@@H]3CN[C@H](CNS(N)(=O)=O)C3)[C@H](C)[C@H]12`
Given back: 0.500
